- Assay system: N-type calcium channel (NTCC) (Homo sapiens, UniProt Q00975)
- Construct: endogenous in cells
- Assay summary: FLIPR calcium mobilization (and/or electrophysiological) assay for N-type calcium channel
- Run parameters: calcium mobilization and/or electrophysiological in vitro assay; differentiated IMR32 cells, 90 mM KCl, 5 μM nitrendipine
Parameter: IC50 (µM)

// below: answered compounds
>  <Compound>
CN[C@@H](CC(C)C)C(=O)N1CCC(N(C2CC2)S(=O)(=O)c2cccc(OC)c2)CC1

>  <Assay system>
N-type calcium channel (NTCC) (Homo sapiens, UniProt Q00975)

>  <Quantity unit>
µM

>  <Result>
7.29

$$$$
>  <Compound>
CN1CCCC1C(=O)N1CCC(N(C2CC2)S(=O)(=O)c2cccc(C(F)(F)F)c2)CC1 (centres unmarked)

>  <Assay system>
N-type calcium channel (NTCC) (Homo sapiens, UniProt Q00975)

>  <Quantity unit>
µM

>  <Result>
1.38

$$$$
>  <Compound>
CN[C@@H](CC(C)C)C(=O)N1CCC(N(C2CCCC2)S(=O)(=O)c2cccc(C(F)(F)F)c2)CC1 [fumarate]

>  <Assay system>
N-type calcium channel (NTCC) (Homo sapiens, UniProt Q00975)

>  <Quantity unit>
µM

>  <Result>
1.56

$$$$
>  <Compound>
CN[C@@H](CC(C)C)C(=O)N1CCC(N(C[C@@H]2CCCO2)S(=O)(=O)c2cccc(C(F)(F)F)c2)CC1

>  <Assay system>
N-type calcium channel (NTCC) (Homo sapiens, UniProt Q00975)

>  <Quantity unit>
µM

>  <Result>
5.06

$$$$

a. CN[C@@H](CC(C)C)C(=O)N1CCC(N(C2CC2)S(=O)(=O)c2cccc([N+](=O)[O-])c2)CC1
b. CN[C@@H](CC(C)C)C(=O)N1CCC(N(C2CC2)S(=O)(=O)c2cccc(OC(F)F)c2)CC1
Request: Could you please tell me which of these two has the higher IC50: a or b ? // caller expects the label of the chosen entry
Response: a
(a: 3.62 µM, b: 2.44 µM)

###

- Assay system: L-type calcium channel (LTCC) (Rattus norvegicus, UniProt P22002)
- Construct: differentiated A7r5 cells were trypsinized, then seeded on tissue culture treated 96-well clear-bottom black plates; endogenous in cells; host or cells: differentiated A7r5 cells (ATCC)
- Sequence (P22002 whole entry): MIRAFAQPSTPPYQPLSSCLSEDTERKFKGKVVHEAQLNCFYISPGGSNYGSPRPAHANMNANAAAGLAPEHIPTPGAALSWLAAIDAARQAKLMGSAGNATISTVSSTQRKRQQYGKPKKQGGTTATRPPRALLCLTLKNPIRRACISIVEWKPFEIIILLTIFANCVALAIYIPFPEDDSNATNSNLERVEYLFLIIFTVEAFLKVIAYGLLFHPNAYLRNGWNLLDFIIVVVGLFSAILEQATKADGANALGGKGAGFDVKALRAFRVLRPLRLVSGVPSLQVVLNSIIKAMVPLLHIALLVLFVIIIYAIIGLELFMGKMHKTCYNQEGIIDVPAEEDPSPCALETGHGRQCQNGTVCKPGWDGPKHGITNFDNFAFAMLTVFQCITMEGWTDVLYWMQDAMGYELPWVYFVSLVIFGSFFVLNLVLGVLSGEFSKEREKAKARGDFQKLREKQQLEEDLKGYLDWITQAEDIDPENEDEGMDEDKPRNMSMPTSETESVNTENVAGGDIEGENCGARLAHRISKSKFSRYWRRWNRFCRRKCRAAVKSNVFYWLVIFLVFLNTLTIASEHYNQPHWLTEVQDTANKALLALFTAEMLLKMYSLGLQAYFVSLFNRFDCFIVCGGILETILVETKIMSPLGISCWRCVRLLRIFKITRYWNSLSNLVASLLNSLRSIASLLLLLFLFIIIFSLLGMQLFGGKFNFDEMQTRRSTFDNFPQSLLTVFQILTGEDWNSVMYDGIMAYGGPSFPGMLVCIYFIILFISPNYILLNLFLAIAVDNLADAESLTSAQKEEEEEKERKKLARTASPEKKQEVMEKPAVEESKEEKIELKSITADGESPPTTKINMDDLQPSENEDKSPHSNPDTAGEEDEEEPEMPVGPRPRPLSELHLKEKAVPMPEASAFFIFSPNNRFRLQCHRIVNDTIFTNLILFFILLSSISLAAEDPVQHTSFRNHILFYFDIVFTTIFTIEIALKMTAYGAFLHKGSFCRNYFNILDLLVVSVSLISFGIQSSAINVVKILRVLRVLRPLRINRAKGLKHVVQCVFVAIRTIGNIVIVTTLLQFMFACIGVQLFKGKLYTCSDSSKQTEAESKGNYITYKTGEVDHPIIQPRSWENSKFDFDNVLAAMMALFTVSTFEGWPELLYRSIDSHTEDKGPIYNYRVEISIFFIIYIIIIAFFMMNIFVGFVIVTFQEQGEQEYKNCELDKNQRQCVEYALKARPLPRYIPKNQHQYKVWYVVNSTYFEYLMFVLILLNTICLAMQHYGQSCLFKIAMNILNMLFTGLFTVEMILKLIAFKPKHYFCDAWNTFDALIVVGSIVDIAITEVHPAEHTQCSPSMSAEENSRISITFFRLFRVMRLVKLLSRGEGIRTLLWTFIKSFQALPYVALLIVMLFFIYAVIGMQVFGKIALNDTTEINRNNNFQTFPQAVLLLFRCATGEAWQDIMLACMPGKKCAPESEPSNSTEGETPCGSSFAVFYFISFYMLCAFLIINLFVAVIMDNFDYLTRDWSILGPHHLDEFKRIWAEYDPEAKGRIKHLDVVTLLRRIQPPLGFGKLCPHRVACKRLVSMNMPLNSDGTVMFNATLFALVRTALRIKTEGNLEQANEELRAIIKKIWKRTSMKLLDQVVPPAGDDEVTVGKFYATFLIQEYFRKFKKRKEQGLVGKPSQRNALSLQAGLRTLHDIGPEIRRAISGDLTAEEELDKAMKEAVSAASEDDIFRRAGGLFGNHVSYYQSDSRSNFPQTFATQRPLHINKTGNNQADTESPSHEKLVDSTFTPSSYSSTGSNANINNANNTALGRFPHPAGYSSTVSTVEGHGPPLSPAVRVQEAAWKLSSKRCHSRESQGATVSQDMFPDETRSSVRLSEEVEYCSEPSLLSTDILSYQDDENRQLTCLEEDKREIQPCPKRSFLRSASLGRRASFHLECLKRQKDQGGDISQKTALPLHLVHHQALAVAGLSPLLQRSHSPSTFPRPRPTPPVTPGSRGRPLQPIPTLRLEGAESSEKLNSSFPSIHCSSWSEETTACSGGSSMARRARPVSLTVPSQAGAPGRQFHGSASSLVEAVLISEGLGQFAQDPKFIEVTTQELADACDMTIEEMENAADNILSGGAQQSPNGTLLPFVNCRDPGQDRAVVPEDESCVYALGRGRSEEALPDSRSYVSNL
- Sequence (P54290 25-944 partner limits assumed): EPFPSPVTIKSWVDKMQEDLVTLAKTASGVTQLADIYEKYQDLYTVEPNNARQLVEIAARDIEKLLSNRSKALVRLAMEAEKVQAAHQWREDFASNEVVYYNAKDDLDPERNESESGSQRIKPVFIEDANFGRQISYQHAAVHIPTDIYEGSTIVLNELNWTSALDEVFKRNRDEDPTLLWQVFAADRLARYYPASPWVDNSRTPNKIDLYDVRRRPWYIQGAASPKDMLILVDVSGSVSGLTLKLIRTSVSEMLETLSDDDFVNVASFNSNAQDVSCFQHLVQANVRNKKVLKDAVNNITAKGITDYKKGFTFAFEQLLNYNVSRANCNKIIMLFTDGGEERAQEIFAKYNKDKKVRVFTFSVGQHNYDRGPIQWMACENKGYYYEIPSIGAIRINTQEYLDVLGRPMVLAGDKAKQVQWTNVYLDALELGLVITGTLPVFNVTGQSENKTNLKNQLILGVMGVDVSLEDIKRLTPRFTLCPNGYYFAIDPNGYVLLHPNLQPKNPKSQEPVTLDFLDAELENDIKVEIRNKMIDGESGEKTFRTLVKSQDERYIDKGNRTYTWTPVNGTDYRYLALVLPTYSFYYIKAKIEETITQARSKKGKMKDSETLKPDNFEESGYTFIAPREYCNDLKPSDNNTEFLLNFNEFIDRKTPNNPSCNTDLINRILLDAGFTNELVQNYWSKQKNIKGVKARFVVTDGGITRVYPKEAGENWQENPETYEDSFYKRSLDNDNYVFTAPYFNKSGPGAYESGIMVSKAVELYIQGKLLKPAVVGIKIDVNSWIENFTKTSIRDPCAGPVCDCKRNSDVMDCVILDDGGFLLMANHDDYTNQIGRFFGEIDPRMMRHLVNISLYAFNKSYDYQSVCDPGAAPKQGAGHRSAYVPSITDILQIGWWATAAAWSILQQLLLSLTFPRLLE
- Sequence (P54290 945-1091 partner limits assumed): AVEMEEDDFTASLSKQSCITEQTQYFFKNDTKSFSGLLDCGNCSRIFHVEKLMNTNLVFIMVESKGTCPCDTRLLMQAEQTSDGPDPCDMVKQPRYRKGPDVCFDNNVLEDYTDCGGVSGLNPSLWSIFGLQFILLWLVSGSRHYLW
- Sequence (P54287 whole entry partner): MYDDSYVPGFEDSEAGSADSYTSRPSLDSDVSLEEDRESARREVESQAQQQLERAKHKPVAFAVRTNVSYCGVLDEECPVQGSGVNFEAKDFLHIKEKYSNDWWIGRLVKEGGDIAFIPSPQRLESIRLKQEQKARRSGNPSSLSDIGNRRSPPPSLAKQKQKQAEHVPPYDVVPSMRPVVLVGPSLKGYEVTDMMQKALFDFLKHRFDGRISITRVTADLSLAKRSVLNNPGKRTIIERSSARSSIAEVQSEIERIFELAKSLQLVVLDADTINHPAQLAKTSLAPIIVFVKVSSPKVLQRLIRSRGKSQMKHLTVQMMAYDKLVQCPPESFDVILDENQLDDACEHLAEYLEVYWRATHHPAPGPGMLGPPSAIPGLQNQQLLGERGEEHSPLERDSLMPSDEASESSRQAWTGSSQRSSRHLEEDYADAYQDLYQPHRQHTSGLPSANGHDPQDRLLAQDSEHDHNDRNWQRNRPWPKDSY
- Assay summary: FLIPR calcium mobilization (and/or electrophysiological) assay for L-type calcium channel
- Format: cell-based
- Run parameters: calcium mobilization and/or electrophysiological in vitro assay; differentiated A7r5 cells, 90 mM KCl
pIC50: −log10 of the molar value.
Parameter: pIC50

Here are 3 compounds together with their reported answers.
>  <Compound>
O=C(CC=C(c1ccc(F)cc1)c1ccc(F)cc1)N1CCC(N(C2CC2)S(=O)(=O)c2ccccc2)CC1

>  <Assay system>
L-type calcium channel (LTCC) (Rattus norvegicus, UniProt P22002)

>  <pIC50>
5.59

$$$$
>  <Compound>
CN[C@@H](CC(C)C)C(=O)N1CCC(N(C)S(=O)(=O)c2cccc(C(F)(F)F)c2)CC1 [fumarate]

>  <Assay system>
L-type calcium channel (LTCC) (Rattus norvegicus, UniProt P22002)

>  <pIC50>
5.29

$$$$
>  <Compound>
O=S(=O)(c1cccc(C(F)(F)F)c1)N(C1CC1)C1CCN(Cc2ccnc3ccccc23)CC1

>  <Assay system>
L-type calcium channel (LTCC) (Rattus norvegicus, UniProt P22002)

>  <pIC50>
5.77

$$$$

I. O=C(CCC(c1ccc(F)cc1)c1ccc(F)cc1)N1CCC(N(C2CC2)S(=O)(=O)c2cccc(F)c2)CC1
II. CN[C@@H](CC(C)C)C(=O)N1CCC(N(C2CC2)S(=O)(=O)c2cccc(C(F)(F)F)c2)CC1
III. O=S(=O)(c1cccc(C(F)(F)F)c1)N(C1CC1)C1CCN(CCCC(c2ccc(F)cc2)c2ccc(F)cc2)CC1
Request: In this exercise, place the 3 compounds in ascending sequence of their recorded pIC50. # answer = labels listed in requested order
Response: II, III, I
